target: PTPμ (Homo sapiens); assay: PTP inhibition assay (pNPP)
Sequence (P28827 21-1452): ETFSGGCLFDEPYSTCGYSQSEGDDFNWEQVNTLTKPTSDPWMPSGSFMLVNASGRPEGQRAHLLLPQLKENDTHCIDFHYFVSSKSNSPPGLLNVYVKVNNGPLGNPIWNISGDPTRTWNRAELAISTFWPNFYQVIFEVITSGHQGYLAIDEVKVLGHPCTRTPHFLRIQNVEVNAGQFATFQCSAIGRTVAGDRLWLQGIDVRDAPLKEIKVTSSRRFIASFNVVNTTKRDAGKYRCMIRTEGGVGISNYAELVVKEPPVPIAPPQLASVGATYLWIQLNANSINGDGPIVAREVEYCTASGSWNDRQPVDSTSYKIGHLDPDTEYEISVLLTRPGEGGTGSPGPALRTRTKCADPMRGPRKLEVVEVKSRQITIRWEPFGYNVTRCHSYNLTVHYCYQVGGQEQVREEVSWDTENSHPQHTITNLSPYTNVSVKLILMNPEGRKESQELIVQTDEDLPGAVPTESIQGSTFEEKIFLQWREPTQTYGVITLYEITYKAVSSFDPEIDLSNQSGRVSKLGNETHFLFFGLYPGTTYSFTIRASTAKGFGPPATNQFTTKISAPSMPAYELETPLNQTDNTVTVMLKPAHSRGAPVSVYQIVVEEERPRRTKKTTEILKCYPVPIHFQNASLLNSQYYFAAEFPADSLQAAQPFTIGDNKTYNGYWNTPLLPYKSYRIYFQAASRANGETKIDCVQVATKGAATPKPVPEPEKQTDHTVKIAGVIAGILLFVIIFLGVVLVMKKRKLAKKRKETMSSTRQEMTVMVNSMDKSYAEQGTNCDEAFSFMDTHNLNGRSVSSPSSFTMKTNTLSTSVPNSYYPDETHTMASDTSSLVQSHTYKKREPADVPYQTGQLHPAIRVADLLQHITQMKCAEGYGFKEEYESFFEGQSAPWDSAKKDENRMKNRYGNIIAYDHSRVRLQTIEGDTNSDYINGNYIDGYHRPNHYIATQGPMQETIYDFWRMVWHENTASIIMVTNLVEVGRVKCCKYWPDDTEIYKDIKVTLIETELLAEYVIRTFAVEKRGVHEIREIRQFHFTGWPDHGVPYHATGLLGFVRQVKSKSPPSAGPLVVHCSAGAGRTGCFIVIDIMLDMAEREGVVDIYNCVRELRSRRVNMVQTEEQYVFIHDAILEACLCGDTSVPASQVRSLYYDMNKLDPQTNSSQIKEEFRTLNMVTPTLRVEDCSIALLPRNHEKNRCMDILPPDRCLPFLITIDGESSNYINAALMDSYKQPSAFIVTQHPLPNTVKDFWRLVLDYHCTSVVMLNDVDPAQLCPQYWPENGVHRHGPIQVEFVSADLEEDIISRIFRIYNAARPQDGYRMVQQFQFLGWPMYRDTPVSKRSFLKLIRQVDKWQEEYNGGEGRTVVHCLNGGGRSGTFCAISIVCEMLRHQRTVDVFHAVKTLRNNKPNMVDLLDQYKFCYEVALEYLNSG
quantity: IC50

Entry under review: O=C(CS(=O)(=O)O)Nc1ccc2nc(C(F)(F)F)[nH]c2c1 . Reported IC50?
> 100 µM

Entry under review: O=C(C(c1ccccc1)S(=O)(=O)O)N1CCC(c2ccc(Cl)c(Cl)c2)CC1 (centres unmarked) [Compound L319N47] . Reported IC50?
> 200 µM

Entry under review: O=C(Nc1ccc2nc(C(F)(F)F)[nH]c2c1)C(c1ccccc1)S(=O)(=O)O (centres unmarked) [Compound L319M54] . Reported IC50?
> 200 µM

Entry under review: O=C(CS(=O)(=O)O)Nc1nc2ccccc2s1 [Compound L335N15] . Reported IC50?
> 100 µM

Entry under review: O=C(CS(=O)(=O)O)Nc1cnc2ccccc2c1 . Reported IC50?
> 100 µM

Entry under review: O=C(Nc1ccc(N2CCOCC2)cc1)C(c1ccccc1)S(=O)(=O)O (centres unmarked) [Compound L319M68] . Reported IC50?
> 200 µM

Entry under review: O=C(C(c1ccccc1)S(=O)(=O)O)N1CCCC2CCCCC21 (centres unmarked) [Compound L319N53] . Reported IC50?
> 200 µM

Entry under review: Cc1c(Br)cc(NC(=O)CS(=O)(=O)O)cc1Br . Reported IC50?
> 100 µM
